SYSTEM: Dual specificity mitogen-activated protein kinase kinase 7 (Homo sapiens, UniProt O14733)
Sequence (O14733 whole entry): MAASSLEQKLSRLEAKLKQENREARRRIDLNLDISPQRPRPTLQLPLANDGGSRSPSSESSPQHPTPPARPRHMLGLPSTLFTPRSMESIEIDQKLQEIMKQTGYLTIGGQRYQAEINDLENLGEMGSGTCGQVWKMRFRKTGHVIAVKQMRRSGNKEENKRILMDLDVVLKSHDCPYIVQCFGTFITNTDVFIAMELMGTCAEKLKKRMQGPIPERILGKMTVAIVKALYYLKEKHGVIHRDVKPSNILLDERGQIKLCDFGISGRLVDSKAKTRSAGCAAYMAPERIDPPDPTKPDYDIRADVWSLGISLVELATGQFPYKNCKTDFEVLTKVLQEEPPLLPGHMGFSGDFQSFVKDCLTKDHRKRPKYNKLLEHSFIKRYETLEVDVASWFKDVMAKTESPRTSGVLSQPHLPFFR
PROTOCOL DETAILS: biochemical
Description: Binding affinity to MKK7 (unknown origin) expressed in HEK293 cells assessed as dissociation constant by kinomescan method
Exercise: state measured pKd for each of the compounds provided.
Field pKd (float): negative decimal logarithm of the concentration in molar.

Query: State the recorded pKd for this entry: COCCSC1=C(C)C(=O)c2ccccc2C1=O
Response: 4.85

Query: Further, for O=C(O)CCSC1=CC(=O)c2ccccc2C1=O ?
Response: 6.64

Query: Same read-out for COC1=C(OC)C(=O)c2ccccc2C1=O ?
Response: 4.57

Query: Ok, now CC1=C(SCCC(=O)O)C(=O)c2ccccc2C1=O
Response: 4.82

Query: What about this compound? CCSC1=C(C)C(=O)c2ccccc2C1=O
Response: 4.89

Query: Now the compound CC(SC1=CC(=O)c2ccccc2C1=O)C(=O)O (stereo not given)
Response: 5.68

Query: // query: O=C(O)c1cccc(NC2=C(Cl)C(=O)c3ccccc3C2=O)c1
Response: 5.72

Query: How about O=C(O)CSC1=CC(=O)c2ccccc2C1=O ?
Response: 5.85

Query: Likewise for CC1=C(SC(C)C)C(=O)c2ccccc2C1=O ?
Response: 4.89

Query: Next up: O=C1C(SCCO)=C(SCCO)C(=O)c2ccccc21
Response: 5.96
